For each of the molecules below, state its IC50.
- Target desc: Caf1/CNOT7 (Homo sapiens, UniProt Q9UIV1)
- Construct: hexahistidine (N)
- Sequence (Q9UIV1 whole entry): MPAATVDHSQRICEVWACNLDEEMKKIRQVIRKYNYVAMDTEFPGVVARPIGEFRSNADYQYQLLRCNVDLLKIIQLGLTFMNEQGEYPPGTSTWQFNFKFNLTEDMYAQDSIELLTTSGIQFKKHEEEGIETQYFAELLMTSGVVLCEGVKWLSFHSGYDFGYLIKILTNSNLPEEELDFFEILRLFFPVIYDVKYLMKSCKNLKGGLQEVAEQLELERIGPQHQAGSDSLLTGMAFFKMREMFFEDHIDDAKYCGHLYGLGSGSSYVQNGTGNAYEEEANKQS
- Assay name: fluorescence-based deadenylase assay
- Condition info: 15 min pre-incubation at room temperature, 60 min at 30°C; ± standard error of the mean, at least three independent experiments
Number in µM, nothing else.

*Q* Given the molecule Cc1ccc(S(=O)(=O)NCc2nnc(NC(=O)c3ccc(NC(=O)C(F)(F)F)cc3)s2)cc1 [NCC-00010651] , write its reported IC50.
*A* 233

*Q* Given the molecule Cc1ccccc1C(=O)Nc1nc2ccc(S(=O)(=O)NCC(C)C)cc2s1 [NCC-00001590] , write its reported IC50.
*A* 98.7

*Q* Given the molecule COc1ccccc1NC(=O)c1ccc(NC(=O)CNC(=O)C(=O)NCc2cccs2)cc1 [NCC-00039069] , write its reported IC50.
*A* 129

*Q* Given the molecule Cc1ccc(N(CCC#N)C(=O)CSc2nc3cc(S(N)(=O)=O)ccc3n2C)cc1 [NCC-00019223] , write its reported IC50.
*A* 97.5

*Q* Given the molecule CC(Cc1ccco1)NC(=O)CSc1nnc(C(=O)Nc2ccc(Cl)cc2)s1 (centres unmarked) [NCC-00007277] , write its reported IC50.
*A* 137
